# assay_name: Fraction unbound in rat plasma by LC-MS/MS analysis
# Type: ADME, cell-free

[
  {
    "molecule": "N#Cc1ccccc1SC1=C(O)CC(c2ccccc2)CC1=O (centres undefined)",
    "fraction unbound": 0.01
  },
  {
    "molecule": "O=C1CC(c2c(Cl)cccc2Cl)CC(O)=C1Sc1ccccc1Cl (centres undefined)",
    "fraction unbound": 0.002
  },
  {
    "molecule": "O=C1CC(c2ccccc2)CC(O)=C1Sc1ccccc1Cl (centres undefined)",
    "fraction unbound": 0.002
  },
  {
    "molecule": "N#Cc1ccccc1SC1=C(O)CC(c2c(Cl)cccc2Br)CC1=O (centres undefined)",
    "fraction unbound": 0.005
  }
]

* * *

# assay_name: AUC (0 to 24 hrs) in Sprague-Dawley rat at 2 mg/kg, po
# Format: ADME, organism-based
# Set-up: time < 24 hr, dose 2 mg/kg, route oral
# condition_context: plasma

[
  {
    "compound": "O=C1CC(c2c(Cl)cccc2Cl)CC(O)=C1Sc1ccccc1Cl (stereo unspecified)",
    "AUC(0-t) at 24 h": "142 µM·h"
  }
]

* * *

# assay_name: Clearance in Sprague-Dawley rat liver microsomes at 1 uM up to 60 mins by LC-MS/MS analysis
# Format: ADME
Label Satisfied when CLhep predicted at 1 µM is strictly below 30 mL/min/kg; at or above that, label Not satisfied.

[
  {
    "compound": "O=C1CC(c2c(Cl)cccc2C(F)(F)F)CC(O)=C1Sc1ccccc1Cl (configuration not stated)",
    "assigned_label": "Not satisfied"
  },
  {
    "compound": "O=C1CC(c2c(C(F)(F)F)cccc2C(F)(F)F)CC(O)=C1Sc1ccccc1Cl (configuration not stated)",
    "assigned_label": "Not satisfied"
  },
  {
    "compound": "N#Cc1ccccc1SC1=C(O)CC(c2ccccc2)CC1=O (configuration not stated)",
    "assigned_label": "Satisfied"
  },
  {
    "compound": "N#Cc1ccccc1SC1=C(O)CC(c2c(Cl)cccc2Cl)CC1=O (configuration not stated)",
    "assigned_label": "Satisfied"
  },
  {
    "compound": "O=C1CC(c2c(Cl)cccc2Cl)CC(O)=C1Sc1ccccc1Cl (configuration not stated)",
    "assigned_label": "Satisfied"
  },
  {
    "compound": "N#Cc1ccccc1SC1=C(O)CC(c2c(Cl)cccc2Br)CC1=O (configuration not stated)",
    "assigned_label": "Not satisfied"
  },
  {
    "compound": "O=C1CC(c2ccccc2)CC(O)=C1Sc1ccccc1Cl (configuration not stated)",
    "assigned_label": "Satisfied"
  }
]

* * *

Measured pIC50, listed per entry for reference.
# tgt: Cytochrome P450 3A4 (Homo sapiens)
# Sequence (P08684 whole entry): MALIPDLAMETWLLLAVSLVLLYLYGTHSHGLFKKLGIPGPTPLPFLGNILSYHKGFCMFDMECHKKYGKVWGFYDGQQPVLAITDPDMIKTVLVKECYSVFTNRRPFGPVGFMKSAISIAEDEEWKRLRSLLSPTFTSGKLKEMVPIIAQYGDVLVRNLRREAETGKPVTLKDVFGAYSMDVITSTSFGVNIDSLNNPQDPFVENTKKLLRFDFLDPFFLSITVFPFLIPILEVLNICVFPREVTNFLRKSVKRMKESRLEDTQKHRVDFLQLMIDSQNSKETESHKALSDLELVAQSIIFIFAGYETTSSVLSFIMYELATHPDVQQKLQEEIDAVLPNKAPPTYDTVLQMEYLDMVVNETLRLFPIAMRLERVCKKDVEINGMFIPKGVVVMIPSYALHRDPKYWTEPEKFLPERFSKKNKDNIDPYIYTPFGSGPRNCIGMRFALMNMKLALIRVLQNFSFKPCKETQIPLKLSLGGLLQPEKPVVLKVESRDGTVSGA
pIC50: −log10 of the molar value.
outcome_measure: pIC50

[
  {
    "compound": "O=C1CC(c2c(Cl)cccc2Cl)CC(O)=C1Sc1ccccc1Cl (configuration not stated)",
    "result": "< 5.30"
  },
  {
    "compound": "O=C1CC(c2c(Cl)cccc2C(F)(F)F)CC(O)=C1Sc1ccccc1Cl (configuration not stated)",
    "result": "< 5.30"
  }
]

* * *

# tgt: UniProt P00338
# assay_name: Inhibition of human recombinant carboxy-terminal His-tagged LDHA by MS endpoint assay
outcome_measure: IC50 (nM)

[
  {
    "compound": "O=C1CC(c2ccccc2)CC(O)=C1Sc1ccccc1[N+](=O)[O-] (stereo unspecified)",
    "outcome_measure": "IC50",
    "quantitative_result": 880
  }
]

* * *

# tgt: L-lactate dehydrogenase A chain (Homo sapiens, UniProt P00338)
# assay_name: Inhibition of human recombinant carboxy-terminal His-tagged LDHA by UV endpoint assay
pIC50: −log10 of the molar value.

[
  {
    "compound": "O=C1CC(c2ccccc2)CC(O)=C1Sc1cc(Cl)ccc1Cl (stereo not drawn)",
    "pIC50": 4.92
  },
  {
    "compound": "Cc1cnc(SC2=C(O)CC(c3ccccc3)CC2=O)nc1O (stereo not drawn)",
    "pIC50": "< 4.00"
  },
  {
    "compound": "O=C1CC(c2ccccc2)CC(O)=C1Sc1ccccc1Br (stereo not drawn)",
    "pIC50": 4.28
  },
  {
    "compound": "O=C1CC(c2ccccc2)CC(O)=C1Sc1nncs1 (stereo not drawn)",
    "pIC50": "< 4.00"
  },
  {
    "compound": "CSc1ccc(SC2=C(O)CC(c3ccccc3)CC2=O)cc1 (stereo not drawn)",
    "pIC50": "< 4.00"
  },
  {
    "compound": "COC(=O)CCSC1=C(O)CC(c2ccccc2)CC1=O (stereo not drawn)",
    "pIC50": "< 4.00"
  },
  {
    "compound": "COc1ccc(SC2=C(O)CC(c3ccccc3)CC2=O)cc1OC (stereo not drawn)",
    "pIC50": "< 4.00"
  },
  {
    "compound": "Cc1ccccc1SC1=C(O)CC(c2ccccc2)CC1=O (stereo not drawn)",
    "pIC50": "< 4.00"
  },
  {
    "compound": "O=C1CC(c2ccccc2)CC(O)=C1Sc1ccccc1F (stereo not drawn)",
    "pIC50": 4.28
  },
  {
    "compound": "Nc1nnc(SC2=C(O)CC(c3ccccc3)CC2=O)s1 (stereo not drawn)",
    "pIC50": "< 4.00"
  },
  {
    "compound": "O=C1CC(c2cccc(Cl)c2)CC(O)=C1Sc1ccccc1Cl (stereo not drawn)",
    "pIC50": 5.25
  },
  {
    "compound": "CC(=O)Nc1ccc(SC2=C(O)CC(c3ccccc3)CC2=O)cc1 (stereo not drawn)",
    "pIC50": "< 4.00"
  },
  {
    "compound": "N#Cc1ccccc1SC1=C(O)CC(c2ccc(Cl)cc2)CC1=O (stereo not drawn)",
    "pIC50": 4.77
  },
  {
    "compound": "CCC(C)CSC1=C(O)CC(c2ccccc2)CC1=O (stereo not drawn)",
    "pIC50": "< 4.00"
  },
  {
    "compound": "O=C1CC(c2ccccc2)CC(O)=C1Sc1ccc(C(=O)O)cc1 (stereo not drawn)",
    "pIC50": "< 4.00"
  },
  {
    "compound": "NC(=O)c1ccccc1SC1=C(O)CC(c2ccccc2)CC1=O (stereo not drawn)",
    "pIC50": "< 4.00"
  },
  {
    "compound": "O=C1CC(c2c(Br)cccc2Br)CC(O)=C1Sc1ccccc1Cl (stereo not drawn)",
    "pIC50": 6.57
  },
  {
    "compound": "Nc1cc(N)nc(SC2=C(O)CC(c3ccccc3)CC2=O)n1 (stereo not drawn)",
    "pIC50": "< 4.00"
  },
  {
    "compound": "O=C1CC(c2c(F)cccc2Cl)CC(O)=C1Sc1ccccc1Cl (stereo not drawn)",
    "pIC50": 5.43
  },
  {
    "compound": "Cc1ccc(SC2=C(O)CC(c3ccccc3)CC2=O)cc1 (stereo not drawn)",
    "pIC50": "< 4.00"
  },
  {
    "compound": "O=C1CC(c2ccccc2)CC(O)=C1Sc1c(Cl)cccc1Cl (stereo not drawn)",
    "pIC50": "< 4.00"
  },
  {
    "compound": "CCOC(=O)c1cnc(SC2=C(O)CC(c3ccccc3)CC2=O)nc1N (stereo not drawn)",
    "pIC50": "< 4.00"
  },
  {
    "compound": "O=C1CC(c2ccccc2)CC(O)=C1Sc1cccc(C(F)(F)F)c1 (stereo not drawn)",
    "pIC50": "< 4.00"
  },
  {
    "compound": "O=C1CC(c2ccccc2)CC(O)=C1Sc1ccc(F)cc1 (stereo not drawn)",
    "pIC50": "< 4.00"
  },
  {
    "compound": "O=C1CC(c2ccccc2)CC(O)=C1Sc1ccccc1[N+](=O)[O-] (stereo not drawn)",
    "pIC50": 5.77
  },
  {
    "compound": "Cc1ccc(SC2=C(O)CC(c3ccccc3)CC2=O)c(C)c1 (stereo not drawn)",
    "pIC50": "< 4.00"
  },
  {
    "compound": "O=C1CC(c2ccccc2)CC(O)=C1Sc1ccccc1C(F)(F)F (stereo not drawn)",
    "pIC50": "< 4.18"
  },
  {
    "compound": "O=C1CC(c2ccccc2)CC(O)=C1Sc1cccc(F)c1 (stereo not drawn)",
    "pIC50": "< 4.00"
  },
  {
    "compound": "O=C1CC(c2ccccc2)CC(O)=C1Sc1cccc(Cl)c1F (stereo not drawn)",
    "pIC50": "< 4.00"
  },
  {
    "compound": "O=C1CC(c2c(F)cccc2F)CC(O)=C1Sc1ccccc1Cl (stereo not drawn)",
    "pIC50": 5.13
  },
  {
    "compound": "Nc1ccc(SC2=C(O)CC(c3ccccc3)CC2=O)cc1 (stereo not drawn)",
    "pIC50": "< 4.00"
  },
  {
    "compound": "O=C1CC(c2ccccc2)CC(O)=C1Sc1ccc(F)cc1Cl (stereo not drawn)",
    "pIC50": 4.62
  },
  {
    "compound": "O=C1CC(c2ccccc2)CC(O)=C1Sc1ccccc1 (stereo not drawn)",
    "pIC50": "< 4.00"
  },
  {
    "compound": "COC(=O)c1ccccc1SC1=C(O)CC(c2ccccc2)CC1=O (stereo not drawn)",
    "pIC50": "< 4.00"
  },
  {
    "compound": "Cc1cccc(C)c1C1CC(=O)C(Sc2ccccc2C#N)=C(O)C1 (stereo not drawn)",
    "pIC50": 5.68
  },
  {
    "compound": "O=C1CC(c2ccccc2)CC(O)=C1Sc1nc2ccc(Cl)cc2[nH]1 (stereo not drawn)",
    "pIC50": "< 4.00"
  },
  {
    "compound": "CC(C)C(C)SC1=C(O)CC(c2ccccc2)CC1=O (stereo not drawn)",
    "pIC50": "< 4.00"
  },
  {
    "compound": "N#Cc1ccccc1SC1=C(O)CC(c2c(Cl)cccc2Cl)CC1=O (stereo not drawn)",
    "pIC50": 6.08
  }
]
